- experiment-notes: PK study, single PO dose, rats
- Assay type: in vivo
- test-context: Sprague-Dawley, rat, plasma; male SD rats, PO 30 mg/kg, Solution (4% NMP, 20% Capmul MCM, 21% Vitamin E TPGS, 55% PEG400); read-out: T½ (converted)

>  <structure-smiles>
CC(C)(c1ccc(OCc2ccnc(NS(C)(=O)=O)n2)cc1)c1cc(Cl)c(OCCCl)c(C#N)c1

>  <half-life [h]>
7.6

$$$$

====

- experiment-notes: Phase I clinical study, PK
- Type: in vivo, human
- test-context: male, human, in vivo, po, 200 mg/day, patients, 200 mg/day oral SDD with HPMCAS-H, Day 1, N 4
experimental-endpoint: Cmax (ng/mL)

>  <structure-smiles>
CC(C)(c1ccc(OCc2ccnc(NS(C)(=O)=O)n2)cc1)c1cc(Cl)c(OCCCl)c(C#N)c1

>  <experimental-endpoint>
Cmax

>  <uom>
ng/mL

>  <numeric-value>
3300

$$$$

====

- experiment-notes: PK study, single PO dose, rats
- Assay type: in vivo
- test-context: Sprague-Dawley, rat, plasma; male SD rats, PO 100 mg/kg, Suspension A (SDD with HPMCAS-H in 0.5% Methocel A4M in water)
experimental-endpoint: AUC(0-t) (µg·h/mL)

>  <molecule>
CC(C)(c1ccc(OCc2ccnc(NS(C)(=O)=O)n2)cc1)c1cc(Cl)c(OCCCl)c(C#N)c1 [Compound A]

>  <numeric-value>
1180

$$$$

====

- experiment-notes: Phase I clinical study, PK
- Type: in vivo, human
- test-context: male, human, in vivo, po, 200 mg/day, patients, 200 mg/day oral SDD with HPMCAS-H, Day 1, N 4; read-out: t½ (converted)

>  <compound>
CC(C)(c1ccc(OCc2ccnc(NS(C)(=O)=O)n2)cc1)c1cc(Cl)c(OCCCl)c(C#N)c1 [Compound A]

>  <uom>
h

>  <half-life>
22

$$$$

====

- experiment-notes: PK study, single PO dose, mice
- Format: in vivo
- test-context: male, CD-1, mouse, plasma, 10 mg/kg, male CD-1 mice, PO 10 mg/kg, Suspension A (SDD)

>  <molecule>
CC(C)(c1ccc(OCc2ccnc(NS(C)(=O)=O)n2)cc1)c1cc(Cl)c(OCCCl)c(C#N)c1 [Compound A]

>  <AUC(0-inf) (µg·h/mL)>
189

$$$$

====

- experiment-notes: Phase I clinical study, PK
- Format: in vivo, human
- test-context: male, human, in vivo, po, 200 mg/day, patients, 200 mg/day oral SDD with HPMCAS-H, Day 1, N 4

>  <structure-smiles>
CC(C)(c1ccc(OCc2ccnc(NS(C)(=O)=O)n2)cc1)c1cc(Cl)c(OCCCl)c(C#N)c1

>  <uom>
h

>  <Tmax>
6.5

$$$$

====

- experiment-notes: PK study, single PO dose, dogs
- Type: in vivo
- test-context: male, Beagle, dog, plasma, 50 mg/kg, PO 50 mg/kg, Suspension A (SDD)

>  <molecule>
CC(C)(c1ccc(OCc2ccnc(NS(C)(=O)=O)n2)cc1)c1cc(Cl)c(OCCCl)c(C#N)c1 [Compound A]

>  <Tmax>
3.3 h

$$$$

====

- experiment-notes: PK study, single PO dose, dogs
- Assay type: in vivo
- test-context: male, Beagle, dog, plasma, 50 mg/kg, PO 50 mg/kg, Solution (5% NMP, 20% vitamin E TPGS, 20% PEG 300, 0.5% SLS, 1.09% HPMCAS-H, 53.91% water), read-out: T½ (converted)
- Procedure: A single PO dose of Compound A in two different formulations were administered to male Beagle dogs. Mean plasma of Compound A was measured over 24-hour period after administration of Compound A (FIG. 15B) and PK parameters were determined (Table 30).
experimental-endpoint: half-life (h)

>  <structure-smiles>
CC(C)(c1ccc(OCc2ccnc(NS(C)(=O)=O)n2)cc1)c1cc(Cl)c(OCCCl)c(C#N)c1

>  <uom>
h

>  <numeric-value>
21.9

$$$$
